Data origin: paper PMC6324689

Below, each entry is listed alongside its reported Kp.
assay: Tissue and plasma PK in OVC134 ovarian PDX model; type: in vivo, BALB/c nude mice; conditions: female, BALB/c nude, mouse, brain and plasma, oral, OVC134 model; niraparib 50 mg/kg qd, olaparib 67 mg/kg bid, 2 days; read-out: AUC0-last Brain:Plasma

# molecule, result
records = [
    ("O=C(c1cc(Cc2n[nH]c(=O)c3ccccc23)ccc1F)N1CCN(C(=O)C2CC2)CC1 [Olaparib]", "~0.03"),
]

Note: attention shifts to another entry.
Answer with the recorded Kp of NC(=O)c1cccc2cn(-c3ccc([C@@H]4CCCNC4)cc3)nc12 [Niraparib] only.
~0.3
